Items are presented alongside their recorded dead.
TEST DESCRIPTION: Toxicity observations in the carrageenin edema test
Format: in vivo
STATED CONDITIONS: animals dead, C.E. test, .324 millimoles/kg, oral, rats
Protocol: Anti-inflammatory activity was determined using (1) the inhibition of carrageenin-induced foot edema test described by Winter et al., Proc. Soc. […] Therap. […] J. Vet. All data were obtained on oral administration in rats.
Structures can show the parent of a compound that is named as a salt.

MOLECULE: CC(C(=O)N1CCC(CN2CCCCC2)CC1)c1cccc(C(=O)c2ccccc2)c1 (stereo not shown) [Example 1A]
dead: 6/8

MOLECULE: CC(CN1CCC(N2CCCCC2)CC1)c1cccc(C(=O)c2ccccc2)c1.Cl.Cl (stereo not shown) [Example 3B]
dead: 1/8

MOLECULE: CC(=O)NC1CCN(CC(C)c2cccc(C(=O)c3ccccc3)c2)CC1.Cl (stereo not shown) [Example 3A]
dead: 2/8

Here's the next entry for you.
response.value for CC(C(=O)N1CCCC(CN2CCCCC2)C1)c1cccc(C(=O)c2ccccc2)c1 (stereo not shown) [Example 1F, hydrochloride] (field: dead) = 5/8

The origin of these recorded values is patent US4339576A.
